Tested on: HOP-62
Test: NCI tumour cell line growth inhibition, 48 h
The source made the active and inactive calls. No stated cut-off is given here; in the data, active = GI50 up to about 1.1 µM and inactive = higher.
Outcomes you can answer with include only these: active, inactive

> print(dat)
                                   compound  class.name
1  CN(C)CCNC(=O)c1cccc2c1Oc1c(cccc1[N+](=O)[O-])O2      active

Ask: Test call, this compound: CCOC(=O)N1CC2(C(=O)OC)C=CC1C(C(=O)OC)C2 (stereo not drawn)
Result: inactive

* * *

Tested on: M14
Experiment: NCI tumour cell line growth inhibition, 48 h
Active and inactive are the calls of the source. Cut-off read from the data, not from the text of the source: active = GI50 up to about 1.1 µM and inactive = higher.
Outcomes you can answer with include only these: active, inactive

Ask: Test call, this compound: CC(C)(C)C1CC[C@H]2c3c([nH]c4ccccc34)[C@H]3C(=O)N(c4ccc(F)cc4)C(=O)[C@H]3[C@H]2C1 (stereo not given in full)
Result: inactive

Ask: Test call, this compound: "O=C(Nc1cnc(O)nc1O)Oc1ccccc1"
Result: inactive

Ask: Test call, this compound: "COc1ccc(NCc2cc(OC)c(OC)c(OC)c2)cc1"
Result: active

Ask: Test call, this compound: "CCn1c2ccccc2c2cc(NC(=O)c3c(C)nc(O)nc3NCCNCCO)ccc21"
Result: inactive

Ask: Test call, this compound: COC(=O)c1ccc(C)cc1CC1Cc2ccc(C)cc2C1=O (stereo not given)
Result: inactive

* * *

Tested on: NCI-H23
Test: NCI tumour cell line growth inhibition, 48 h
The source made the active and inactive calls. Rule as the data show it: active = GI50 up to about 1.1 µM and inactive = higher.
Outcomes you can answer with include only these: active, inactive

As a guide, the following entries are already answered.
MOLECULE	CLASS_NAME
CO[C@H]1C[C@@H]2CC[C@@H](C)[C@@](O)(O2)C(=O)C(=O)N2CCCC[C@H]2C(=O)O[C@H]([C@H](C)C[C@@H]2CC[C@@H](OC(=O)C(C)(CO)CO)[C@H](OC)C2)CC(=O)[C@H](C)/C=C(\C)[C@@H](O)[C@@H](OC)C(=O)[C@H](C)C[C@H](C)/C=C/C=C/C=C/1C [TEMSIROLIMUS]	active
Nc1ccc(Oc2ccc(C34CC5CC6C3CC3CC4C(C5)C6(c4ccc(Oc5ccc(N)cc5)cc4)C3)cc2)cc1	inactive
C[C@@H]1C(=O)CC2(O)[C@@]13C[C@@H](OC(=O)[C@@H]3O)[C@@H](C)[C@@]21COC1=O (stereo partly drawn)	inactive
C[C@@H]1CC[C@@H](C)[C@](C)(CCc2ccoc2)C/C=C\C=C/1C(=O)O	inactive
COc1ccc2c(c1)CCc1c-2n(CCN2CCOCC2)c2ccc(OC)cc12	inactive

Ask: Test call, this molecule: "Cc1cc(C)nc(NS(=O)(=O)c2ccc(Nc3c4ccccc4nc4c(C(=O)N5CCN(CCOS(C)(=O)=O)CC5)cccc34)cc2)n1"
Result: inactive

Ask: Test call, this molecule: CC(c1ccccc1)n1cncc1C(=O)NN1CCN(C)CC1 (stereo not drawn)
Result: inactive

Ask: Test call, this molecule: Cn1c2ccccc2c(=O)c2cccc(C(=O)NC(CCC(N)=O)C(=O)O)c21 (stereo not drawn)
Result: inactive

Ask: Test call, this molecule: "O=C(O)/C=C\C(=O)c1ccc(Cl)cc1"
Result: inactive

* * *

Tested on: HCC 2998
Test: NCI tumour cell line growth inhibition, 48 h
Calls of active or inactive are those of the source. Rule as the data show it: active = GI50 up to about 1.1 µM and inactive = higher.
Outcomes you can answer with include only these: YES for active, NO for inactive

> print(dat)
                                   molecule  class.name
1                      CNc1ncnc2c1cnn2CCCCO          NO
2  CCN(CC)CCN(/C(=N/c1ccccc1)N1CCOCC1)c1ccccc1          NO
3  COc1ccc(C2=C[C@]3(O)CCCN3C[C@@H]2c2ccc(OC)c(OC)c2)cc1         YES
4      COc1cccc2c1CCc1sc(CN3CCN(C)CC3)nc1-2          NO

Ask: Test call, this molecule: "Cc1cc(Cl)ccc1NC(=O)CC/C(CC(=O)C(C)C)=N\NC(=O)C[n+]1ccccc1"
Result: NO

Ask: Test call, this molecule: CC(=O)OC1(C(C)=O)CC2(c3ccccc3)OC1(c1ccccc1)c1ccccc12 (stereo not given)
Result: NO

Ask: Test call, this molecule: "O=C(Nc1ccccc1)c1cc2ccccc2c(/N=N\c2cccc([N+](=O)[O-])c2)c1O"
Result: NO

Ask: Test call, this molecule: "COC(=O)[C@@H]1C=C[C@H](NC(C)=O)C1"
Result: NO

Ask: Test call, this molecule: "CSCCCNC(=O)c1csc(-c2csc(CCNC(=O)CNC(=O)OC(C)(C)C)n2)n1"
Result: NO

Ask: Test call, this molecule: COc1ccc(N2C(=O)[C@H]3[C@H]4CC(C(C)(C)C)CC[C@H]4c4c(n(C)c5ccccc45)[C@H]3C2=O)cc1 (stereo not given in full)
Result: NO

* * *

Tested on: MDA-MB-435
Experiment: NCI tumour cell line growth inhibition, 48 h
The source made the active and inactive calls. Cut-off read from the data, not from the text of the source: active = GI50 up to about 1.1 µM and inactive = higher.
Outcomes you can answer with include only these: T for active, F for inactive

As a guide, the following entries are already answered.
COMPOUND	TARGET_OR_TEST_SYSTEM	CLASS_NAME
CC1=C[C@H](O)[C@@]2(C)[C@@H]([C@@H]1C)[C@H]1CC[C@@H]3[C@@]4(C)CC[C@H](O)C(C)(C)[C@@H]4CC[C@@]3(C)[C@]1(C)C[C@@H]2O	MDA-MB-435	F
Cc1ccc(OCC2OC(n3cnc4c(Cl)nc(Cl)nc43)CC2Oc2ccc(C)cc2)cc1 (centres undefined)	MDA-MB-435	F

Ask: Test call, this compound: "COC1(OC)CCCc2c1no[n+]2[O-]"
Result: F

Ask: Test call, this compound: "CCc1ccc(NC(=O)NC(=O)c2ccccc2[N+](=O)[O-])cc1Oc1ncc(Cl)cn1"
Result: T

Ask: Test call, this compound: "Oc1ccc2cc(Br)ccc2c1-c1c(O)ccc2ccc(Br)cc12"
Result: F

Ask: Test call, this compound: "O=C(Nc1ccccc1)c1cc2ccccc2c(/N=N\c2cccc([N+](=O)[O-])c2)c1O"
Result: F

Ask: Test call, this compound: "O=C(O)/C(Cc1ccnc2ccccc12)=N\O"
Result: F

Ask: Test call, this compound: "CCN1C(Cl)=NS(=O)(=O)c2ccccc21"
Result: F

Ask: Test call, this compound: "Cc1cc2c(cc1-c1cc3c(cc1C)C(C(C)C)=C(O)C(=O)/C3=C\Nc1c(C)n(C)n(-c3ccccc3)c1=O)/C(=C/Nc1c(C)n(C)n(-c3ccccc3)c1=O)C(=O)C(O)=C2C(C)C"
Result: F

Ask: Test call, this compound: "c1cc(C2=NCCO2)c2ccsc2c1"
Result: F

Ask: Test call, this compound: "Oc1ccccc1/C=N/Nc1nnc2c3ccccc3c3ccccc3c2n1"
Result: F

Ask: Test call, this compound: "COc1cc2c(cc1OC)[C@H]1C(=O)c3cc4c(cc3[C@H]1N(C)C2=O)OCO4"
Result: F

Ask: Test call, this compound: "CN[C@@H](Cc1cccc2ccccc12)C(=O)N[C@@H](CC(C)C)B(O)O"
Result: T

Ask: Test call, this compound: O=C1c2ccccc2CC12Cc1ccc3c(c1C2)CCC3 (centres undefined)
Result: F

Ask: Test call, this compound: "CCc1n[nH]c(=O)n1/N=C/c1ccc(/C=N/n2c(CC)n[nH]c2=O)cc1"
Result: F

Ask: Test call, this compound: "Cc1ccc(/N=N/NCCCCN)cc1"
Result: F

Ask: Test call, this compound: "N#Cc1c(N)c2c(c(-c3ccccc3)c1-c1ccccc1)C(=O)N(Nc1ccccc1)C2=O"
Result: F

Ask: Test call, this compound: "Nc1ccc(Oc2ccc(C34CC5CC6C3CC3CC4C(C5)C6(c4ccc(Oc5ccc(N)cc5)cc4)C3)cc2)cc1"
Result: T

Ask: Test call, this compound: "O=[N+]([O-])c1cccc(-c2csc(N/N=C3\NC/C(=C/c4ccc5c(c4)OCO5)S3)n2)c1"
Result: F

* * *

Test system: OVCAR-4
Experiment: NCI tumour cell line growth inhibition, 48 h
Activity calls are given as the source filed them. No stated cut-off is given here; in the data, active = GI50 up to about 1.1 µM and inactive = higher.
Outcomes you can answer with include only these: y (active), n (inactive)

As a guide, the following entries are already answered.
> print(dat)
                                   molecule  class.name
1  OC(CN1CCCCC1)c1ccc(/C=C/c2ccc(Cl)cc2)cc1 (centres undefined)           n
2        COc1ccc(NCc2cc(OC)c(OC)c(OC)c2)cc1           n
3  CC(=O)OC1CC2(O)C(CCC3(C)C(c4ccc(=O)oc4)CCC32O)C2(C)C1=CC(O)C1OC12 (centres undefined)           y

Ask: Test call, this molecule: "COc1cc(CNc2ccc(SC)cc2)cc(OC)c1OC"
Result: n

* * *

Tested on: A498
Assay: NCI tumour cell line growth inhibition, 48 h
Calls of active or inactive are those of the source. Rule as the data show it: active = GI50 up to about 1.1 µM and inactive = higher.
Outcomes you can answer with include only these: YES for active, NO for inactive

As a guide, the following entries are already answered.
COMPOUND	CLASS_NAME
CN1C(=O)N(C)C2(O)c3ccccc3C(=O)C12O (centres undefined)	NO
CC1(Cl)CC2OC3(Br)C=CC(C)(O)C2(CC1Br)C3(C)C (centres undefined)	NO

Ask: Test call, this compound: "C#Cc1cccc(N2C(=O)CC(=P(c3ccccc3)(c3ccccc3)c3ccccc3)C2=O)c1"
Result: NO

Ask: Test call, this compound: "C#CCn1c(=O)ccn(/C(=C\C(=O)OCC)C(=O)OCC)c1=O"
Result: NO

Ask: Test call, this compound: O=C(NCc1cccnc1)C1COc2cc(-c3cc(=O)c4ccccc4o3)ccc2O1 (centres undefined)
Result: NO
